This section presents compounds with their documented pIC50 values.
- Tested on: drug-resistant cell lines of Table 3
- Protocol details: Cell line growth retardation assay, resistant cohort
- Format: cell-based, Human
- Measurement conditions: Homo sapiens, 144 h; arithmetic mean of IC50s over the resistant cohort of Table 3, 6 days growth; read-out: AvgRes IC50
pIC50: −log10 of the molar value.
Value type: pIC50

Compound: COc1cc(-c2ncc3snc(O[C@H](Cc4ccccc4OCc4ccnc(-c5ccccc5OC)n4)C(=O)O)c3c2-c2ccc(OCCN3CCN(C)CC3)c(Cl)c2C)ccn1 (atropisomer, axis not shown)
Experimental value: < 5.30

Compound: COc1ccccc1-c1nccc(COc2ccccc2C[C@@H](Oc2nsc3cnc(-c4ccc(F)c(F)c4)c(-c4ccc(OCCN5CCN(C)CC5)c(Cl)c4C)c23)C(=O)O)n1 (atropisomer, axis not shown)
Experimental value: < 5.30

Compound: COc1cccc(Oc2ccc(-c3nccc(COc4ccccc4C[C@@H](Oc4nsc5cnc(C6CCC6)c(-c6ccc(OCCN7CCN(C)CC7)c(Cl)c6C)c45)C(=O)O)n3)cn2)c1 (atropisomer, axis not shown)
Experimental value: < 5.30

Compound: Cc1c(-c2c(C3CCC3)ncc3snc(O[C@H](Cc4ccccc4OCc4ccnc(C5CC5)n4)C(=O)O)c23)ccc(OCCN2CCN(C)CC2)c1Cl (atropisomer, axis not shown)
Experimental value: < 5.30

Compound: Cc1c(-c2cc(-n3c(C)c(Cl)c4cc(Cl)cnc43)cc3snc(O[C@H](Cc4ccccc4OCc4ccnn4CC(F)(F)F)C(=O)O)c23)ccc(OCCN2CCN(C)CC2)c1Cl
Experimental value: < 5.30

====

- Experimental system: BCLXL (Homo sapiens)
- Sequence (Q07817 whole entry): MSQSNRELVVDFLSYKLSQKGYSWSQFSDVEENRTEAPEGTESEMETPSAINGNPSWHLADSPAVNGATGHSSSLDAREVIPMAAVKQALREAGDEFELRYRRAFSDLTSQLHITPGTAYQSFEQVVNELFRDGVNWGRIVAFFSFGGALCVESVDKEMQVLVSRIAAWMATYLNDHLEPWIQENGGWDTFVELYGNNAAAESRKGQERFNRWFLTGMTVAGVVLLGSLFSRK
- Protocol details: BCLXL affinity assay (competition binding, qPCR readout)
- Measurement conditions: recombinant BCLXL, 11-point 3-fold dilution series
- Experimental: Recombinant MCL1, BCL2 and BCXL proteins were prepared in either an E. coli host derived from the BL21 strain or in HEK-293 cells. The recombinant proteins were subsequently tagged with DNA for qPCR detection. […] The recombinant protein concentration in the eluates was measured by qPCR. Kds were determined using an 11-point 3-fold compound dilution series with three DMSO control points.
pKd: −log10 of the molar value.

Molecule: Cc1c(-c2c(-c3ccc(F)s3)ncc3snc(O[C@H](Cc4ccccc4OCc4ccnn4CC(F)(F)F)C(=O)O)c23)ccc(OCCN2CCN(C)CC2)c1Cl (single isomer, unassigned) [Compound 2]
pKd: < 5.82

Molecule: Cc1cc2cccc(-c3ncc4snc(O[C@H](Cc5ccccc5OCc5ccnn5CC(F)(F)F)C(=O)O)c4c3-c3ccc(OCCN4CCN(C)CC4)c(Cl)c3C)c2[nH]1 (atropisomer, axis not shown)
pKd: < 5.82

Molecule: COc1cccc(-c2ncc3snc(O[C@H](Cc4ccccc4OCc4ccnc(-c5ccccc5OC)n4)C(=O)O)c3c2-c2ccc(OCCN3CCCC3)c(Cl)c2C)c1 (atropisomer, axis not shown)
pKd: < 5.82

====

- System: drug-resistant cell lines of Table 3
- Protocol details: Cell line growth retardation assay, resistant cohort
- Assay type: cell-based, Human
- Measurement conditions: Homo sapiens, 144 h; arithmetic mean of IC50s over the resistant cohort of Table 3, 6 days growth; read-out: AvgRes IC50
- Experimental: Cells were seeded at densities of 1,000-5,000 cells per well in 48-well tissue culture plates. After a 24 h rest period, cells were treated with compound at 10 μM, 1 μM, […], 0.08 μM, 0.016 μM, and 0.0032 μM. […] Prior to treatment, cells were counted and this count was used as a baseline for the calculation of growth inhibition. The cells were grown in the presence of compounds for 6 days and were counted on day 6. […]
pIC50: −log10 of the molar value.
This section presents compounds with their documented pIC50 values.
Value type: pIC50

Compound: COc1ccccc1-c1nccc(COc2ccccc2C[C@@H](Oc2nsc3cnc(-c4ccccn4)c(-c4ccc(OCCN5CCN(C)CC5)c(Cl)c4C)c23)C(=O)O)n1 (atropisomer, axis not shown)
Experimental system: drug-resistant cell lines of Table 3
Experimental value: < 5.30
--
Compound: COc1ccccc1-c1nccc(COc2ccccc2C[C@@H](Oc2nsc3cnc(-c4cccc(C#N)c4)c(-c4ccc(OCCN5CCN(C)CC5)c(Cl)c4C)c23)C(=O)O)n1 (atropisomer, axis not shown)
Experimental system: drug-resistant cell lines of Table 3
Experimental value: < 5.30
--
Compound: COc1cccc(-c2ncc3snc(O[C@H](Cc4ccccc4OCc4ccnc(-c5ccccc5OC)n4)C(=O)O)c3c2-c2ccc(OCCCN(C)C)c(Cl)c2C)c1 (atropisomer, axis not shown)
Experimental system: drug-resistant cell lines of Table 3
Experimental value: < 5.30

====

This section presents compounds with their documented Kd values.
- Experimental system: MCL1 (Homo sapiens, UniProt Q07820)
- Sequence (Q07820 whole entry): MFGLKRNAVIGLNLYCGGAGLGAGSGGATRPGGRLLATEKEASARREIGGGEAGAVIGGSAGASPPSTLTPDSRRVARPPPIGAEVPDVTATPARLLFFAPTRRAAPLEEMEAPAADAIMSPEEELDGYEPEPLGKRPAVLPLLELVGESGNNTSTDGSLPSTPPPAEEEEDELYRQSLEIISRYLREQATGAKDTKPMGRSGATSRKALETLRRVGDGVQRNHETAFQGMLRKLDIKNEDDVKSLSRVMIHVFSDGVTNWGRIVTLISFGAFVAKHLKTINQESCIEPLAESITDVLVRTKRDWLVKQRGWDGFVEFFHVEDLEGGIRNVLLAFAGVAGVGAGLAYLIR
- Protocol details: MCL1 affinity assay (competition binding, qPCR readout)
- Measurement conditions: recombinant MCL1, 11-point 3-fold dilution series

Compound: Cc1c(-c2c(C3CCC3)ncc3snc(O[C@H](Cc4ccccc4OCc4ccnc(-c5cccc(OC(F)(F)F)c5)n4)C(=O)O)c23)ccc(OCCN2CCN(C)CC2)c1Cl (atropisomer, axis not shown)
Kd: 101 to 500 nM
//
Compound: Cc1c(-c2c(C3CCC3)ncc3snc(O[C@H](Cc4ccccc4OCc4ccnc(-c5ccc(OCc6ccccc6)nc5)n4)C(=O)O)c23)ccc(OCCN2CCN(C)CC2)c1Cl (atropisomer, axis not shown)
Kd: > 1500 nM
//
Compound: Cc1c(-c2c(-c3ccc(F)s3)ncc3snc(O[C@H](Cc4ccccc4OCc4ccnn4CC(F)(F)F)C(=O)O)c23)ccc(OCCN2CCN(C)CC2)c1Cl (single isomer, unassigned) [Compound 2]
Kd: 501 to 1500 nM
//
Compound: Cc1c(-c2c(-c3cccc4[nH]c(C(F)(F)F)cc34)ncc3snc(O[C@H](Cc4ccccc4OCc4ccnn4CC(F)(F)F)C(=O)O)c23)ccc(OCCN2CCN(C)CC2)c1Cl (atropisomer, axis not shown)
Kd: > 1500 nM

====

- Experimental system: MCL1 (Homo sapiens)
- Protocol details: MCL1 affinity assay (competition binding, qPCR readout)
- Measurement conditions: recombinant MCL1, 11-point 3-fold dilution series
pKd: −log10 of the molar value.

Molecule: COCc1ccccc1-c1nccc(COc2ccccc2C[C@@H](Oc2nsc3cnc(-c4cccc(OC)c4)c(-c4ccc(OCCN5CCN(C)CC5)c(Cl)c4C)c23)C(=O)O)n1 (atropisomer, axis not shown) [Compound 65]
pKd: ≥ 7.00
//
Molecule: COc1ccccc1-c1nccc(COc2ccccc2C[C@@H](Oc2nsc3cnc(-c4ccc(F)cc4)c(-c4ccc(OCCN5CCN(C)CC5)c(Cl)c4C)c23)C(=O)O)n1 [Compound 40]
pKd: ≥ 7.00
//
Molecule: COc1cccc(-c2ncc3snc(O[C@H](Cc4ccccc4OCc4ccnc(-c5ccccc5OC)n4)C(=O)O)c3c2-c2ccc(OCCN3CCOCC3)c(Cl)c2C)c1 (single isomer, unassigned) [Compound 42]
pKd: ≥ 7.00
//
Molecule: COc1cccc(-c2ncc3snc(O[C@H](Cc4ccccc4OCc4ccnc(-c5ccccc5OC)n4)C(=O)O)c3c2-c2ccc(OC[C@@H]3CCCN3C)c(Cl)c2C)c1 (atropisomer, axis not shown) [Compound 49]
pKd: ≥ 7.00
//
Molecule: COc1ccccc1-c1nccc(COc2ccccc2C[C@@H](Oc2nsc3cnc(-c4cnn(CC(C)C)c4)c(-c4ccc(OCCN5CCN(C)CC5)c(Cl)c4C)c23)C(=O)O)n1 (atropisomer, axis not shown) [Compound 79]
pKd: 5.82 to 6.30
//
Molecule: COc1cccc(-c2ncc3snc(O[C@H](Cc4ccccc4OCc4ccnc(-c5ccccc5OC)n4)C(=O)O)c3c2-c2ccc(OC[C@H]3CCCN3C)c(Cl)c2C)c1 (atropisomer, axis not shown) [Compound 48]
pKd: ≥ 7.00
//
Molecule: COc1ccccc1-c1nccc(COc2ccccc2C[C@@H](Oc2nsc3cnc(-c4cc(F)c(F)c(F)c4)c(-c4ccc(OCCN5CCN(C)CC5)c(Cl)c4C)c23)C(=O)O)n1 (atropisomer, axis not shown) [Compound 84]
pKd: ≥ 7.00
//
Molecule: COc1ccccc1C[C@@H](Oc1nsc2cnc(-c3cccc(F)c3)c(-c3ccc(OCCN4CCN(C)CC4)c(Cl)c3C)c12)C(=O)O (atropisomer, axis not shown) [Compound 93]
pKd: 6.30 to 7.00
//
Molecule: CCOc1cc(-c2ncc3snc(O[C@H](Cc4ccccc4OCc4ccnc(-c5ccccc5OC)n4)C(=O)O)c3c2-c2ccc(OCCN3CCN(C)CC3)c(Cl)c2C)ccn1 (atropisomer, axis not shown) [Compound 32]
pKd: ≥ 7.00
//
Molecule: COc1ccccc1-c1nccc(COc2ccccc2C[C@@H](Oc2nsc3cc(-c4nn(C)c5cc(Cl)ccc45)cc(-c4ccc(OCCN5CCN(C)CC5)c(Cl)c4C)c23)C(=O)O)n1 [Compound 97]
pKd: 5.82 to 6.30
//
Molecule: COc1ccccc1-c1nccc(COc2ccccc2C[C@@H](Oc2nsc3cnc(-c4ccn(CC(C)C)n4)c(-c4ccc(OCCN5CCN(C)CC5)c(Cl)c4C)c23)C(=O)O)n1 (atropisomer, axis not shown) [Compound 38]
pKd: ≥ 7.00
//
Molecule: COc1cccc(Oc2ccc(-c3nccc(COc4ccccc4C[C@@H](Oc4nsc5cnc(C6CCC6)c(-c6ccc(OCCN7CCN(C)CC7)c(Cl)c6C)c45)C(=O)O)n3)cn2)c1 (atropisomer, axis not shown) [Compound 114]
pKd: 6.30 to 7.00
//
Molecule: CC(=O)N1CCN(c2ccc(-c3nccc(COc4ccccc4C[C@@H](Oc4nsc5cnc(C6CCC6)c(-c6ccc(OCCN7CCN(C)CC7)c(Cl)c6C)c45)C(=O)O)n3)cc2)CC1 (atropisomer, axis not shown) [Compound 119]
pKd: ≥ 7.00
//
Molecule: COc1ccccc1-c1nccc(COc2ccccc2C[C@@H](Oc2nsc3cnc(C4=CCOCC4)c(-c4ccc(OCCN5CCN(C)CC5)c(Cl)c4C)c23)C(=O)O)n1 (atropisomer, axis not shown) [Compound 54]
pKd: ≥ 7.00
//
Molecule: COc1cc(-c2nccc(COc3ccccc3C[C@@H](Oc3nsc4cnc(-c5cccc(F)c5)c(-c5ccc(OCCN6CCN(C)CC6)c(Cl)c5C)c34)C(=O)O)n2)ccn1 (atropisomer, axis not shown) [Compound 71]
pKd: 6.30 to 7.00
//
Molecule: Cc1c(-c2c(-c3cccc(F)c3)ncc3snc(O[C@H](Cc4ccccc4OCc4ccnn4CC(F)(F)F)C(=O)O)c23)ccc(OCCN2CCN(C)CC2)c1Cl (atropisomer, axis not shown) [Compound 26]
pKd: 6.30 to 7.00
//
Molecule: Cc1c(-c2c(-c3cccc4ccoc34)ncc3snc(O[C@H](Cc4ccccc4OCc4ccnn4CC(F)(F)F)C(=O)O)c23)ccc(OCCN2CCN(C)CC2)c1Cl (atropisomer, axis not shown) [Compound 21]
pKd: 6.30 to 7.00
//
Molecule: Cc1c(-c2c(-c3cccc4c3sc3ccccc34)ncc3snc(O[C@H](Cc4ccccc4OCc4ccnn4CC(F)(F)F)C(=O)O)c23)ccc(OCCN2CCN(C)CC2)c1Cl (atropisomer, axis not shown) [Compound 9]
pKd: < 5.82
